Values from ChEMBL document CHEMBL1156481

Record form. Attribute: Kd. Fill in for each entry.
# experiment: Binding affinity to exonuclase deficient HSV1 DNA polymerase UL42 D368A mutant
# Design: species or system Human alphaherpesvirus 1
Give bare numbers, in µM.

compound | value.unit | quantitative.result
Nc1nc2c(ncn2COCCOP(=O)(O)OP(=O)(O)OP(=O)(O)O)c(=O)[nH]1 [ACYCLOVIR TRIPHOSPHATE] | µM | 6

--- query ---
Task: Identify Kd associated with the compound Nc1nc2c(ncn2[C@H]2C[C@H](O)[C@@H](COP(=O)(O)OP(=O)(O)OP(=O)(O)O)O2)c(=O)[nH]1 [DEOXYGUANOSINE TRIPHOSPHATE]
Result: 0.8
